Reported values of IC50 for individual entries
biological target: HLA-DR DRB1*1302 (DR13) (Homo sapiens, UniProt P01903+P01911, A100E/A169T/K41T/L162R/M171V/P40S/Q125H/Q178H/Q39Y/Q99D/R42S/S66N/T262R/V115G/W38E/Y61H); experiment: biochemical; format: binding; conditions: DRBI *1302
Sequence (P01903 26-254 limits assumed, other chains not shown): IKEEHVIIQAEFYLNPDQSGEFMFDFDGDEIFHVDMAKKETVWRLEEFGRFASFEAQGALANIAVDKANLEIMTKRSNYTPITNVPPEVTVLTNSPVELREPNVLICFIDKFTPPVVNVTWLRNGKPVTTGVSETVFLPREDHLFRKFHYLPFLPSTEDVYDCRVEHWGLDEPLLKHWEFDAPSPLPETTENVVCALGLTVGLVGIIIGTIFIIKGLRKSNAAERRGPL
Field: numeric (nM). Do not append units.

Smiles Text	IC50 (nM)
CC(C)C[C@H](NC(=O)[C@H](CCC(N)=O)NC(=O)[C@H](CCC(N)=O)NC(=O)[C@@H](N)Cc1ccccc1)C(=O)N[C@@H](Cc1ccccc1)C(=O)N[C@@H](CC(C)C)C(=O)N[C@@H](CC(N)=O)C(=O)N[C@H](C(=O)N[C@@H](CC(C)C)C(=O)N[C@@H](CO)C(=O)N[C@@H](Cc1ccccc1)C(=O)N[C@H](C(=O)N[C@@H](CS)C(=O)N1CCC[C@H]1C(=O)N[C@@H](Cc1c[nH]c2ccccc12)C(=O)O)C(C)C)[C@@H](C)O	9.3

Okay, now this compound:
Field request: IC50 | item: CC[C@H](C)[C@H](NC(=O)[C@H](Cc1c[nH]c2ccccc12)NC(=O)[C@@H](NC(=O)[C@@H](NC(=O)[C@H](CO)NC(=O)[C@H](CC(C)C)NC(=O)[C@@H](N)[C@@H](C)O)C(C)C)[C@@H](C)O)C(=O)NCC(=O)N[C@@H](C)C(=O)N[C@@H](C)C(=O)N1CCC[C@H]1C(=O)N[C@@H](CC(C)C)C(=O)N[C@H](C(=O)N[C@@H](CC(C)C)C(=O)N[C@@H](CO)C(=O)O)[C@@H](C)CC 642
